- Tested system: mPIEZO1 (Mus musculus)
- Construct: expressed in transfected cells
- Measurement description: Intracellular Ca2+ measurement (Fura-2) in mPIEZO1-TREx cells
- Assay type: cell-based
- Condition label: overexpressed mouse PIEZO1, calcium assays
Reported metric: EC50 (nM)
Answers are plain numbers, in nM.

Worked set:
Molecule: O=C(O)c1ccc(-c2nnc(SCc3c(Cl)cccc3Cl)s2)cc1
EC50, nM: 280
--
Molecule: O=C([O-])c1ccc(-c2nnc(SCc3c(Cl)cccc3Cl)s2)cc1.[K+]
EC50, nM: 150

Then there is this compound:
Sure, the documented EC50 for `Clc1cccc(Cl)c1CSc1nnc(-c2cnccn2)s1` is 600

###

- Tested system: mPIEZO1 (Mus musculus, UniProt E2JF22)
- Construct: expressed in transfected cells
- Sequence (E2JF22 whole entry): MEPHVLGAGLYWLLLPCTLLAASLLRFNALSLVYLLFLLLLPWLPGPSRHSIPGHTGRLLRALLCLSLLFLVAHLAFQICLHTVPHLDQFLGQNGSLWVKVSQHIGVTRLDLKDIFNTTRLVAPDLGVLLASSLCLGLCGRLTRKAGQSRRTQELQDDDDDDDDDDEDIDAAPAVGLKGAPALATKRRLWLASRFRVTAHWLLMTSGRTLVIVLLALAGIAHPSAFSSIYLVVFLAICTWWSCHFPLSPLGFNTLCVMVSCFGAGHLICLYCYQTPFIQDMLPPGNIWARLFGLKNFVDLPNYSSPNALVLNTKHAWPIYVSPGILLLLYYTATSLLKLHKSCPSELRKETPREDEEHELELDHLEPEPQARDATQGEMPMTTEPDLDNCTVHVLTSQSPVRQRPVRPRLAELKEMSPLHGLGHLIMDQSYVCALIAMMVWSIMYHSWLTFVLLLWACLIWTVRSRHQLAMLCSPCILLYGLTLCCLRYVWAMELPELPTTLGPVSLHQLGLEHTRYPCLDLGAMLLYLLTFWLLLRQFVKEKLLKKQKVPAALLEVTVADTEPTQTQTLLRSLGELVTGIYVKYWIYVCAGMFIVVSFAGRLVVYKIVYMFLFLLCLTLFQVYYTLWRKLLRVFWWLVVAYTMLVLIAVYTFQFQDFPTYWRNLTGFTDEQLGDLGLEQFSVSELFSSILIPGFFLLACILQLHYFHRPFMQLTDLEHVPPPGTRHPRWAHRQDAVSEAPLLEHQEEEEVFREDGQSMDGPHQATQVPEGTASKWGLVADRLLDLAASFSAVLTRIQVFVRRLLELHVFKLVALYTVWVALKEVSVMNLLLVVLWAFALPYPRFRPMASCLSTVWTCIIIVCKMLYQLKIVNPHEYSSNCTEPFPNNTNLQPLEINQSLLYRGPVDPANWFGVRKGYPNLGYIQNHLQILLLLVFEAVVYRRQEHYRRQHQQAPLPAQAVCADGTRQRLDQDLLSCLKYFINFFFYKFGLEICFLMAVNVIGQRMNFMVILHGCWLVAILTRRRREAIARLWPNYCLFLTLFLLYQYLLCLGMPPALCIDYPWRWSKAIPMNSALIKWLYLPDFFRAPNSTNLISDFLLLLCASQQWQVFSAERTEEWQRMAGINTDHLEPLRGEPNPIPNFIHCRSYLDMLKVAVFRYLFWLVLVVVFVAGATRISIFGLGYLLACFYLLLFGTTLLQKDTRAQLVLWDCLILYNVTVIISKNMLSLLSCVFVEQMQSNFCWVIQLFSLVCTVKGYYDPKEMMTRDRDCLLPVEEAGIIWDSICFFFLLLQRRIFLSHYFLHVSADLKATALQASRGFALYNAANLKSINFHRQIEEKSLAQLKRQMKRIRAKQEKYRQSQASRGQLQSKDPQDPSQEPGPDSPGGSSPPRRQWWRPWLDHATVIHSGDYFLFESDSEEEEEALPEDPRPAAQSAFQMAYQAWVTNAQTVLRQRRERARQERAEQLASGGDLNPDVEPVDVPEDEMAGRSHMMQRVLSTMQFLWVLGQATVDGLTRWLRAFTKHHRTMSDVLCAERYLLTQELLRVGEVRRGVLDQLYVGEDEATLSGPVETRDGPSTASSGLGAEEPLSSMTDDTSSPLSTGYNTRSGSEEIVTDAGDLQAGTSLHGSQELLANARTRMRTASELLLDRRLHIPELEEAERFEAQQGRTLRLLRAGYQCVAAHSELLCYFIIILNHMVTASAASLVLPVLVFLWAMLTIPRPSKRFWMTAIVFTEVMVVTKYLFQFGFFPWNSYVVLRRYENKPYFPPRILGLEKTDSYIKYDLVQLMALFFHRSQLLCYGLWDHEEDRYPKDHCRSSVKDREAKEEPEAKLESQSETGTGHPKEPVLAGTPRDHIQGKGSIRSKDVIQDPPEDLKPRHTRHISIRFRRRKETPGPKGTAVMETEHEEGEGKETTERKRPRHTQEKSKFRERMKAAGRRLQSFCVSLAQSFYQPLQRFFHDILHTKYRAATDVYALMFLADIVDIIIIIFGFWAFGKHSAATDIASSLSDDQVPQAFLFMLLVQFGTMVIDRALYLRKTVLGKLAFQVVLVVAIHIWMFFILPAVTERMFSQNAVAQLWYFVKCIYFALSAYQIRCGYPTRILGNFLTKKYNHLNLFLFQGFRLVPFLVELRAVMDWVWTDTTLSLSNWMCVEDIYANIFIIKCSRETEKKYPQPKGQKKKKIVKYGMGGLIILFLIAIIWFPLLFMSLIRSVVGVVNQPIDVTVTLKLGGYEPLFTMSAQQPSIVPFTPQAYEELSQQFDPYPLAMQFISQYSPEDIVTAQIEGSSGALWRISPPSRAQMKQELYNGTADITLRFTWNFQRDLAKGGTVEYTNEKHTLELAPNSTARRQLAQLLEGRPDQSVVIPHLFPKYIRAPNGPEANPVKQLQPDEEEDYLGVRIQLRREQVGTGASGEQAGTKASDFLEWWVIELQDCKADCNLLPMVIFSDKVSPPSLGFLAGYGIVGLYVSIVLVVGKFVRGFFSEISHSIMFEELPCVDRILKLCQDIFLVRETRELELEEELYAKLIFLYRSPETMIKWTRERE
- Measurement description: Intracellular Ca2+ measurement (Fura-2) in mPIEZO1-TREx cells
- Format: cell-based
- Condition label: 10 μM compound, mPIEZO1-TREx cells, paired with 10 μM Yoda1
Reported metric: Peak ΔCa2+i (ΔF340/380), median fold difference compared to Yoda1

Worked set:
Compound: O=C(O)c1cccc(-c2nnc(SCc3c(Cl)cccc3Cl)s2)c1 [KC158]
Measured value: −2.0 fold

Compound: O=C(O)c1ccccc1-c1nnc(SCc2c(Cl)cccc2Cl)s1 [KC157]
Measured value: −70.6 fold

Compound: NC(=O)c1ccc(-c2nnc(SCc3c(Cl)cccc3Cl)s2)cc1 [KC161]
Measured value: −3.8 fold

Compound: NC(=O)c1cccc(-c2nnc(SCc3c(Cl)cccc3Cl)s2)c1 [KC162]
Measured value: −3.7 fold

Compound: O=C(O)c1ccc(-c2nnc(SCc3c(Cl)cccc3Cl)s2)cc1 [KC159]
Measured value: +1.1 fold

Then there is this compound:
Sure, the documented Peak ΔCa2+i (ΔF340/380), median fold difference compared to Yoda1 for O=C([O-])c1ccc(-c2nnc(SCc3c(Cl)cccc3Cl)s2)cc1.[K+] [KC289] is +1.2 fold

###

- Measurement description: Plasma protein binding by rapid equilibrium dialysis
- Type: in vitro ADME
- Condition label: mouse, plasma, RED, read-out: Fraction bound to plasma proteins (converted)
Reported metric: fraction unbound at 4 h, 5 μM

Sure, the documented fraction unbound at 4 h, 5 μM for O=C(O)c1ccc(-c2nnc(SCc3c(Cl)cccc3Cl)s2)cc1 [KC159] is 0.006
